# testTarget: ERK5 (Homo sapiens, UniProt Q13164)
# testName: cell-based
# Sequence (Q13164 whole entry): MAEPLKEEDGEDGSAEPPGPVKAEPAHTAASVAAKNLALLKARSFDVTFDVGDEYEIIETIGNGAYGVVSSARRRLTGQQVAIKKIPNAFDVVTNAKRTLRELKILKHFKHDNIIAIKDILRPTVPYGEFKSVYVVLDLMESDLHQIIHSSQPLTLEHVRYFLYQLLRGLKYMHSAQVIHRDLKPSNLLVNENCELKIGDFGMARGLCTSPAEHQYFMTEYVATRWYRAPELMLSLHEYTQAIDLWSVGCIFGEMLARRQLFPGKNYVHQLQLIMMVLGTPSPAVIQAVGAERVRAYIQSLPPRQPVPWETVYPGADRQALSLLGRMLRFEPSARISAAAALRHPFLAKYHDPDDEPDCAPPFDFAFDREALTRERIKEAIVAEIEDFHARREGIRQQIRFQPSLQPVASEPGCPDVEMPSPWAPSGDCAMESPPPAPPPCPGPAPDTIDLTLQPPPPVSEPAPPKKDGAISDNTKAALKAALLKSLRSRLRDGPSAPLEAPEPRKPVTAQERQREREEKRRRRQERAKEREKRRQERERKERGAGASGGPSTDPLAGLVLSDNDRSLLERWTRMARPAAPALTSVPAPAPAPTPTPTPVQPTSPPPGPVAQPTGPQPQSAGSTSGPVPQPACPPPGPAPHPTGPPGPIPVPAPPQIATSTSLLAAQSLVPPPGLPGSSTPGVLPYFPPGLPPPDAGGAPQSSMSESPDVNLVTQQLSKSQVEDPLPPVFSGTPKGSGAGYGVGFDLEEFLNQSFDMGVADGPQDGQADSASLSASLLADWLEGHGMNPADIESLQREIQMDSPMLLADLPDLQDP
pIC50: −log10 of the molar value.
Quick reference: pIC50 of the listed items.

The examples below pair each entry with its known result.
O=C(c1cccc(N2CCCS2(=O)=O)c1)N1CCC(c2ccnc3[nH]c(C4CCOCC4)nc23)CC1 [Example 85]    < 5.00
O=C(C1CCN(c2ccccc2Cl)C1)N1CCC(c2ccnc3[nH]c(C4CCOCC4)nc23)CC1 (stereo not shown) [Example 118]    < 5.00
O=C(c1ccc(OC(F)(F)F)cc1)N1CCC(c2ccnc3[nH]c(-c4csc(-c5cc(Cl)ccc5O)n4)nc23)CC1 [Example 135]    < 5.00

Attention now turns to another entry.
[in] Consider the compound Nc1cc(OC(F)(F)F)ccc1C(=O)N1CCC(c2ccnc3[nH]c(C4CCOC4)nc23)CC1 (single isomer, unassigned) [Example 186] and give its measured pIC50.
[out] 7.57

----------
# testTarget: ERK5 (Homo sapiens)
# testName: cell-based
assayReadout: log10 IC50 (log10 of the value in µM)
Please note: log10 values; quantity IC50; unit µM.

Please review the following examples before continuing.
CC(C)(C)OC(=O)Nc1cc(OC(F)(F)F)ccc1C(=O)N1CCC(c2ccnc3[nH]c(C4CCOCC4)nc23)CC1    -0.01
O=C(c1cnn2c1NCCC2C(F)(F)F)N1CCC(c2ccnc3[nH]c(C4CCOCC4)nc23)CC1 (stereo not drawn)    0.90
O=C(c1ccc(S(F)(F)(F)(F)F)cc1)N1CCC(c2ccnc3[nH]c(C4CCCO4)nc23)CC1 (single isomer, unassigned)    -0.79

[in] Look up log10 IC50 for this molecule: Nc1c(C(=O)N2CCC(c3ccnc4[nH]c(C5CCOCC5)nc34)CC2)sc(C(F)(F)F)c1-c1ccccc1
[out] 0.35

[in] Follow-up entry: CN1CCC(c2nc3c(C4CCN(C(=O)c5ccc(OC(F)(F)F)cc5)CC4)ccnc3[nH]2)C1 (single isomer, unassigned) [Example 24]
[out] -0.82

[in] And Nc1cc(OC(F)(F)F)ccc1C(=O)N1CCC(c2ccnc3[nH]c(C4COCCO4)nc23)CC1 (single isomer, unassigned) ?
[out] -1.01

----------
# testTarget: ERK5 (Homo sapiens)
assayReadout: IC50
Don't forget the unit after the number, please.

[in] I'd like to know its IC50. The compound in question is CN1CCC(c2nc3c(C4CCN(C(=O)c5ccc(OC(F)(F)F)cc5)CC4)ccnc3[nH]2)C1 (single isomer, unassigned)
[out] 148 nM

----------
Each entry below lists one item and its recorded log10 of IC50 value.
# testTarget: ERK5 (Homo sapiens)
# testName: biochemical
# Sequence (Q13164 55-347 limits assumed): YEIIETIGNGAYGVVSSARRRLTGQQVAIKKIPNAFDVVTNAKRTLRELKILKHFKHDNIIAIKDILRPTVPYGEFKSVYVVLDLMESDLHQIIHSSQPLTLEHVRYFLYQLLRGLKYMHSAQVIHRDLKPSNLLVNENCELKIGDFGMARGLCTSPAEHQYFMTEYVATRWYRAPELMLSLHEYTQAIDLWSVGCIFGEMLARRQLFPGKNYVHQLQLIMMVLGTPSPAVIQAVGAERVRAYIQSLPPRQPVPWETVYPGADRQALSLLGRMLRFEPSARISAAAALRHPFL
Values below are the log10 of the recorded IC50, with nM as the unit.

O=C(c1ccc(S(F)(F)(F)(F)F)cc1)N1CCC(c2c(F)cnc3[nH]c([C@H]4C[C@@H](O)C4)nc23)CC1    2.69
Nc1cc(OC(F)(F)F)ccc1C(=O)N1CCC(c2ccnc3[nH]c(CC4CCOC4)nc23)CC1 (single isomer, unassigned)    2.15
Nc1cc(OC(F)(F)F)ccc1C(=O)N1CCC(c2ccnc3[nH]c(C4CCN(CC(F)F)CC4)nc23)CC1    1.67

[in] Param item = COC12CC(c3nc4c(C5CCN(C(=O)c6ccc(OC(F)(F)F)cc6N)CC5)ccnc4[nH]3)(C1)C2 ; retrieve measured log10 of IC50.
[out] 1.11

[in] Same question, CC12CC(N)(C1)C(c1nc3c(C4CCN(C(=O)c5ccc(OC(F)(F)F)cc5N)CC4)ccnc3[nH]1)O2 (single isomer, unassigned) this time
[out] 2.32

[in] Query Nc1c(C(=O)N2CCC(c3ccnc4[nH]c(C5CCOCC5)nc34)CC2)ccc(OC(F)(F)F)c1F next
[out] 1.56

[in] Record: O=C(c1ccc(S(F)(F)(F)(F)F)cc1)N1CCC(c2c(F)cnc3[nH]c([C@H]4C[C@H](O)C4)nc23)CC1
[out] 2.24

[in] O=C(C1CCN(c2ccccc2Cl)C1)N1CCC(c2ccnc3[nH]c(C4CCOCC4)nc23)CC1 (stereo not shown) ?
[out] 4.26

[in] Again, but for O=C(c1ccc(OC(F)(F)F)cc1)N1CCC(c2c(F)cnc3[nH]c(C45CC(C(F)(F)F)(C4)C5)nc23)CC1
[out] 3.65

[in] Another: O=C(c1ccc(S(F)(F)(F)(F)F)cc1)N1CCC(c2c(F)cnc3[nH]c(C4CN(C(=O)O)C5COCC5O4)nc23)CC1 (racemic)
[out] 3.81

[in] Check COC12CC(c3nc4c(C5CCN(C(=O)c6ccc(OC(F)(F)F)cc6)CC5)c(F)cnc4[nH]3)(C1)C2 too.
[out] 1.84

[in] // same read-out, input: O=C(c1ccc(S(F)(F)(F)(F)F)cc1)N1CCC(c2ccnc3[nH]c(C4CCCO4)nc23)CC1 (single isomer, unassigned)
[out] 2.22

[in] Repeat for the following molecule: O=C(c1ccc(S(F)(F)(F)(F)F)cc1)N1CCC(c2c(F)cnc3[nH]c(C4CCOC4)nc23)CC1 (single isomer, unassigned)
[out] 2.84

----------
# testTarget: ERK5 (Homo sapiens)
# testName: cell-based
assayReadout: IC50 (nM)
Value expressed in nM; do not type the unit.

O=C(c1n[nH]c2ccccc12)N1CCC(c2ccnc3[nH]c(C4CCOCC4)nc23)CC1 [Example 78]    3600
Nc1cc(OC(F)(F)F)ccc1C(=O)N1CCC(c2ccnc3[nH]c(C4CNCCO4)nc23)CC1 (single isomer, unassigned) [Example 96]    87

[in] Fill blank: measured IC50 of the compound Nc1cc(OC(F)(F)F)ccc1C(=O)N1CCC(c2ccnc3[nH]c(CC4CCOC4)nc23)CC1 (single isomer, unassigned) [Example 2] is ____.
[out] 134

[in] Same question for CC12CC(N)(C1)C(c1nc3c(C4CCN(C(=O)c5ccc(OC(F)(F)F)cc5N)CC4)ccnc3[nH]1)O2 (single isomer, unassigned) [Example 254] please.
[out] 203

[in] Same again, this time with O=C(c1ccc(OC(F)(F)F)cc1)N1CCC(c2ccnc3[nH]c(-c4cnc5ccc(C(F)(F)F)cc5c4O)nc23)CC1 [Example 230]
[out] 6480

[in] Same question for Nc1c(C(=O)N2CCC(c3ccnc4[nH]c(C5CCOCC5)nc34)CC2)ccc(OC(F)(F)F)c1F [Example 189] please.
[out] 37

[in] Nc1cc(S(F)(F)(F)(F)F)ccc1C(=O)N1CCC(c2ccnc3[nH]c(C4CCOC4)nc23)CC1 (single isomer, unassigned) [Example 308] ?
[out] 99

----------
# testTarget: ERK5 (Homo sapiens)
# testName: cell-based
// IC50 lookup, one value per entry

Nc1cc(OC(F)(F)F)ccc1C(=O)N1CCC(c2c(F)cnc3[nH]c(C45CC(C(F)(F)F)(C4)C5)nc23)CC1 [Example 432]    16 to 43 nM
Nc1nc2ccccc2nc1C(=O)N1CCC(c2ccnc3[nH]c(C4CCOCC4)nc23)CC1 [Example 116]    > 10000 nM

[in] Please look up its IC50: COC12CC(c3nc4c(C5CCN(C(=O)c6ccc(OC(F)(F)F)cc6N)CC5)ccnc4[nH]3)(C1)C2 [Example 150]
[out] 13 nM

----------
# testTarget: ERK5 (Homo sapiens, UniProt Q13164)
# testName: biochemical
Entries and their pIC50 values follow.
In textbook form, pIC50 equals minus log to base ten of the concentration in mol/L.

O=C(c1cnn(Cc2ccccc2Cl)c1)N1CCC(c2ccnc3[nH]c(C4CCOCC4)nc23)CC1 [Example 112]    4.83
O=C(c1ccc(OC(F)(F)F)cc1)N1CCC(c2c(F)cnc3[nH]c(C4CCC5(COC5)N(C(=O)O)C4)nc23)CC1 (racemic) [Example 461]    6.61
O=C(C1CC1c1cccc(O)c1)N1CCC(c2ccnc3[nH]c(C4CCOCC4)nc23)CC1 (stereo not drawn) [Example 86]    4.60
Nc1c(C(=O)N2CCC(c3ccnc4[nH]c(C5CCOCC5)nc34)CC2)cnn1-c1ccccc1 [Example 105]    5.16
CN1CCC(c2nc3c(C4CCN(C(=O)c5ccc(OC(F)(F)F)cc5)CC4)ccnc3[nH]2)C1 (single isomer, unassigned) [Example 24]    6.83
Nc1cc(OC(F)(F)F)ccc1C(=O)N1CCC(c2ccnc3[nH]c(C4COCCO4)nc23)CC1 (single isomer, unassigned) [Example 144]    6.99
Nc1cc(S(F)(F)(F)(F)F)ccc1C(=O)N1CCC(c2ccnc3[nH]c(C4CCOC4)nc23)CC1 (single isomer, unassigned) [Example 308]    7.01
COC12CC(c3nc4c(C5CCN(C(=O)c6ccc(S(F)(F)(F)(F)F)cc6)CC5)ccnc4[nH]3)(C1)C2 [Example 302]    7.02

[in] Return reported pIC50; argument: O=C1Nc2ccccc2OC1CC(=O)N1CCC(c2ccnc3[nH]c(C4CCOCC4)nc23)CC1 (stereo not drawn) [Example 106]
[out] 4.59

[in] What would you report for O=C(c1cn(-c2ccc(F)cc2)cn1)N1CCC(c2ccnc3[nH]c(C4CCOCC4)nc23)CC1 [Example 120] ?
[out] 5.18

[in] Input CS(=O)(=O)c1ccc(C(=O)N2CCC(c3ccnc4[nH]c(C5CCOCC5)nc34)CC2)c(N)c1 [Example 84]
[out] 4.57

[in] Now the same for O=C(c1ccc(S(F)(F)(F)(F)F)cc1)N1CCC(c2c(F)cnc3[nH]c([C@H]4CC[C@@](O)(C(F)(F)F)CC4)nc23)CC1 [Example 450]
[out] 4.98

[in] Please do the same for COC12CC(c3nc4c(C5CCN(C(=O)c6ccc(OC(F)(F)F)cc6N)CC5)c(F)cnc4[nH]3)(C1)C2 [Example 428] as well.
[out] 7.55

[in] Do the same for Nc1cc(OC(F)(F)F)ccc1C(=O)N1CCC(c2ccnc3[nH]c(C4CNCCO4)nc23)CC1 (single isomer, unassigned) [Example 96] please
[out] 7.08

[in] Another compound to look at: O=C(c1ccc(S(F)(F)(F)(F)F)cc1)N1CCC(c2ccnc3[nH]c(C4CCOC4)nc23)CC1 (single isomer, unassigned) [Example 301]
[out] 6.56
